Target: Muscarinic acetylcholine receptor M1 (Rattus norvegicus, UniProt P08482)
Sequence (P08482 whole entry): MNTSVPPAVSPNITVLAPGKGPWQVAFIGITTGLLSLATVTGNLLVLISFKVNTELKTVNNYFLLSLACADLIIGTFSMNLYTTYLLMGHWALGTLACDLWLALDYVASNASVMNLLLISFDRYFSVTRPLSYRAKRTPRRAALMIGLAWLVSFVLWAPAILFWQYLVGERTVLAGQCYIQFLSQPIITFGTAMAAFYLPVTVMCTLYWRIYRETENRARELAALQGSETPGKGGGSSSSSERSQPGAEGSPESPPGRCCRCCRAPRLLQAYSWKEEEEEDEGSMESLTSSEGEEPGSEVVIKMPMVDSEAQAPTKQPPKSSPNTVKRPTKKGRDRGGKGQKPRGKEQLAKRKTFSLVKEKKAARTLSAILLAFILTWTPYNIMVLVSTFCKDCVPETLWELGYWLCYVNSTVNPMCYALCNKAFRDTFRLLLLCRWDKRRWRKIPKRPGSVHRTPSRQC
Endpoint: pKi
Note on units: pKi is unitless, being -log10 of a concentration expressed in mol/L.

Worked set:
[
  {
    "Line Notation": "CCN(CC)CCOC(=O)C1(c2ccc(N)cc2)CCCC1",
    "pKi": 7.70
  },
  {
    "Line Notation": "CCN(CC)CCOC(=O)C1(c2ccc(C#N)cc2)CCCC1",
    "pKi": 8.09
  },
  {
    "Line Notation": "CCN(CC)CCOC(=O)C1(c2ccc([N+](=O)[O-])cc2)CCCC1",
    "pKi": 8.26
  },
  {
    "Line Notation": "CCN(CC)CCOC(=O)C1(c2ccccc2)CCCC1",
    "pKi": 8.92
  },
  {
    "Line Notation": "CCN(CC)CCOC(=O)C1(c2ccc(N3CCCC3)cc2)CCCC1",
    "pKi": 6.82
  }
]

Q. Looking for the measured pKi of CCN(CC)CCOC(=O)C1(c2ccc(I)cc2)CCCC1 , can you help?
A. 8.68

Q. May I ask what pKi has been recorded for CCN(CC)CCOC(=O)C1(c2ccc(-n3cnnn3)cc2)CCCC1 ?
A. 7.84
